target: T1, human CD47 expressed on cells (CD47 expressing CHO cells, Jurkat, HL60, DLD1, Raji) (human, UniProt Q08722 19-292); experiment: flow cytometry SIRP-alpha blocking assay on Raji cells, MFI
T1 construct: also called CHO-CD47; IAP
Record form. Attribute: IC50 (read off the curve). Fill in for each entry.

| binder | assay-value |
| --- | --- |
| H-ABU 41 (antibody, V domains shown, Humanized antibody) VL: DVQITQSPSSLSASVGDRVTITCRASKNIGKYLAWFQQKPGKTNKLLIYSGSTLQSGIPSRFSGSGSGTDFTLTISSLQPEDFATYYCQQHNEYPYTFGGGTKVEIK VH: QVQLQQSGAEVKKPGASVKVSCKTSGYSFTNYWMQWVRQAPGQGLEWIGMIDPSDSESRLNQKFKDKATLTVDKSTSTAYMELSSLRSEDTAVYYCARRGSPMITSFAYWGQGTLVTVSS | ~0.3 nM |

Each of the following entries comes with a recorded value; kindly state IC50 (read off the curve) for each.
1. H-ABU 38 (antibody, V domains shown, Humanized antibody) VH: QVQLVQSGAEVKKPGASVKVSCKASGYTFTNYWMQWVRQAPGQGLEWIGMIDPSDSESRLNQKFKDRATLTVDTSTSTVYMELSSLRSEDTAVYYCARRGSPMITSFAYWGQGTLVTVSS VL: DVQITQSPSSLSASVGDRVTITCRASKNIGKYLAWFQQKPGKTNKLLIYSGSTLQSGIPSRFSGSGSGTDFTLTISSLQPEDFATYYCQQHNEYPYTFGGGTKVEIK
2. H-ABU 37 (antibody, V domains shown, Humanized antibody) VH: QVQLVQSGAEVKKPGASVKVSCKASGYTFTNYWMQWVRQAPGQGLEWMGMIDPSDSESRLNQKFKDRVTMTRDTSTSTVYMELSSLRSEDTAVYYCARRGSPMITSFAYWGQGTLVTVSS VL: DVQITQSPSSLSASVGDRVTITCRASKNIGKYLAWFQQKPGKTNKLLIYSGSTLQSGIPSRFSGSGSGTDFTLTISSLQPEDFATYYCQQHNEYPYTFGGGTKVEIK
3. H-ABU 43 (antibody, V domains shown, Humanized antibody) VH: QVQLVQSGAEVKKPGASVKVSCKTSGYSFTNYWMQWVRQAPGQGLEWMGMIDPSDSESRLNQKFKDRVTMTRDTSTSTAYMELSSLRSEDTAVYYCARRGSPMITSFAYWGQGTLVTVSS VL: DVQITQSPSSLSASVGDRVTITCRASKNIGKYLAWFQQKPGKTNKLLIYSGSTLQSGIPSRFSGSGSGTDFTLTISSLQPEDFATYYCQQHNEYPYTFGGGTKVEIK
4. Positive 3 (analogue antibody) (antibody, V domains shown) VH: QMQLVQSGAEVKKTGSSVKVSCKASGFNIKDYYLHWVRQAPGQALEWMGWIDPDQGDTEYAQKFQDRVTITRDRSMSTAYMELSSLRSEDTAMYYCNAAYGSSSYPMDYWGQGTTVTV VL: NIQMTQSPSAMSASVGDRVTITCKASQDIHRYLSWFQQKPGKVPKHLIYRANRLVSGVPSRFSGSGSGTEFTLTISSLQPEDFATYYCLQYDEFPYTFGGGTKVEIK
5. H-ABU 39 (antibody, V domains shown, Humanized antibody) VH: QVQLVQSGAEVKKPGASVKVSCKTSGYSFTNYWMQWVRQAPGQGLEWIGMIDPSDSESRLNQKFKDRATLTVDTSTSTAYMELSSLRSEDTAVYYCARRGSPMITSFAYWGQGTLVTVSS VL: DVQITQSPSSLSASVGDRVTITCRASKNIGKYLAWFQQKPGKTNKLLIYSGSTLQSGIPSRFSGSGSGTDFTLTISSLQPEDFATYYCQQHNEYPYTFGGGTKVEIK

["~0.3 nM", "~0.3 nM", "~0.3 nM", "~0.6 nM", "~0.3 nM"]
